- targetOrTestSystem: α1-adrenergic receptors
- test: [3H] Prazosin radioligand binding, rat brain

| compound | targetOrTestSystem | unitDescriptor | IC50 |
| --- | --- | --- | --- |
| CC(C)=CCNC(=N)NCCC[C@@H]1Nc2ccc(C(=O)OC/C(C)=C/CNC(=N)N)cc2[C@@H]2[C@H]1CCN2C(=N)NCC=C(C)C (relative stereo) [Compound I] | α1-adrenergic receptors | nM | 60 |

---

- targetOrTestSystem: cholinergic muscarinic receptors (Rattus norvegicus)
- Sequence (P10980 1-466): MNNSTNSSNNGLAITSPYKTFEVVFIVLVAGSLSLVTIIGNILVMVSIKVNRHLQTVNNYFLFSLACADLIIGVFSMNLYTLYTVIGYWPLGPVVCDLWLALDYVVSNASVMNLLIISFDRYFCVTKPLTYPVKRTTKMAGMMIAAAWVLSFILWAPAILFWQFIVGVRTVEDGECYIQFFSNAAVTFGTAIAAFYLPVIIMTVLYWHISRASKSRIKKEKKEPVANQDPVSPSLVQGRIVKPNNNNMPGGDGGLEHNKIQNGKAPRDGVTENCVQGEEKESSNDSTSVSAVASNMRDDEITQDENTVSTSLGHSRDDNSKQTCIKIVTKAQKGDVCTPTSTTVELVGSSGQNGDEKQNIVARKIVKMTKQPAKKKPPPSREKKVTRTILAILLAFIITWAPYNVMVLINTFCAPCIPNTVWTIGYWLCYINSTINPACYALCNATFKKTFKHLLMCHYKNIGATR

| compound | unitDescriptor | IC50 |
| --- | --- | --- |
| CC(C)=CCNC(=N)NCCC[C@@H]1Nc2ccc(C(=O)OC/C(C)=C/CNC(=N)N)cc2[C@@H]2[C@H]1CCN2C(=N)NCC=C(C)C (relative stereo) | nM | 100 |
